# assay_comment: hydrolytic stability in 0.1M sodium dihydrogen phosphate pH 7.0 at 40° (first-order kinetics), Table C
# Format: physicochemical
# condition_info: 0.1m phosphate buffer; hydrolysis, 0.1M phosphate pH 7.0, 40°
half-life: recorded values
Report only the number, with the unit h understood.

Would you please look over these solved cases?
[
  {
    "molecule": "CC1(C)COC(=O)N1Cl",
    "half-life (h)": 2040
  },
  {
    "molecule": "O=C1OCCN1Cl",
    "half-life (h)": 45
  },
  {
    "molecule": "CC1COC(=O)N1Cl (centres unmarked)",
    "half-life (h)": 10.9
  },
  {
    "molecule": "CC1(C)CN(Cl)C(=O)O1",
    "half-life (h)": 86.6
  }
]

Would you kindly look at the next entry?
Give the measured half-life of CC1OC(=O)N(Cl)C1C (centres unmarked) .
38.5

###

# System: Staphylococcus aureus ATCC 6538
# assay_comment: contact germicidal (bactericidal) time before and after 14 day incubation of solutions at 40° C., Table B
# Assay type: cell-based
# condition_info: before incubation, at initial ppm +Cl of the same line, pH 7.0
Parameter: Bc Time, initial. Scope: all listed entries.
Supply the numeric figure in min, leaving out any unit text.

Can you look up the measured Bc Time, initial of CC1OC(=O)N(Cl)C1C (centres unmarked) [Example 1C, 3-Chloro-4,5-dimethyl-2-oxazolidinone] for me?
4

Which measured Bc Time, initial value corresponds to CC1(C)COC(=O)N1Cl [Example 1F, 3-Chloro-4,4-dimethyl-2-oxazolidinone] ?
2

If you can, please state the reported Bc Time, initial value of CCC1(C)COC(=O)N1Cl (centres unmarked) [Example 1H] .
3

Recorded Bc Time, initial of CC1COC(=O)N1Cl (centres unmarked) [Example 1B, 3-Chloro-4-methyl-2-oxazolidinone] , please.
1

Consider the molecule CC1(C)CN(Cl)C(=O)O1 [Example 1G, 3-Chloro-5,5-dimethyl-2-oxazolidinone] and give its measured Bc Time, initial.
7

Entry CC1CN(Cl)C(=O)O1 (centres unmarked) [Example 1D, 3-Chloro-5-methyl-2-oxazolidinone] : reported Bc Time, initial = ?
0.5

Please give the measured Bc Time, initial for this molecule: CCC1CN(Cl)C(=O)O1 (centres unmarked) [Example 1E, 3-Chloro-5-ethyl-2-oxazolidinone]
1

Fill in: Bc Time, initial of O=C1OCCN1Cl [Example 1A, 3-chloro-2-oxazolidinone] is ___
1
